- TEST TARGET: MBP-hNAA80 (Homo sapiens, UniProt Q93015)
- Construct: made in house; host or cells: Escherichia coli BL21 star
- Sequence (Q93015 whole entry): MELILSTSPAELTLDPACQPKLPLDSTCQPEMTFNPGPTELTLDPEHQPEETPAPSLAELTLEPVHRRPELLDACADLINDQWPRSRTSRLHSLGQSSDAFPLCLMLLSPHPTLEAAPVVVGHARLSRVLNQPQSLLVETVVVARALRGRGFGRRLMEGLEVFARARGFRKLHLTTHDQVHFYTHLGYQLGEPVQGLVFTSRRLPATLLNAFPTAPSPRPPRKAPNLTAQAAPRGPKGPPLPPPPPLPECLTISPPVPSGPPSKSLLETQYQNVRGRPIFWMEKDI
- ASSAY TEXT: In vitro DTNB Nt-acetyltransferase inhibitor assay
- Format: biochemical
- EXPERIMENTAL SETUP: 300 μM Ac-CoA, 300 μM substrate peptide, Tris pH 8.5, triplicates, ± standard deviation
*1 amine or outer side, *2 acyl side, *3 side chain or, on linkers, in order; H or OH if unused. Where a SMILES comes first, the peptide text is derived from it. [ ]: non-standard residue; d: D form. The star is where a group is joined. Pantoyl(4-O-3'-P-ADP) = CC(C)(COP(=O)(O)OP(=O)(O)OC[C@H]1O[C@@H](n2cnc3c(N)ncnc32)[C@H](O)[C@@H]1OP(=O)(O)O)[C@@H](O)C(=O)*; NHCH2CH2SCH2CO = O=C(CSCCN[*:1])[*:2]; βAla = NCCC(=O)O

- COMPOUND: "CC[C@H](C)[C@H](NC(=O)[C@H](CCC(=O)O)NC(=O)[C@H](CCC(=O)O)NC(=O)[C@H](CC(=O)O)NC(=O)CSCCNC(=O)CCNC(=O)[C@H](O)C(C)(C)COP(=O)(O)OP(=O)(O)OC[C@H]1O[C@@H](n2cnc3c(N)ncnc32)[C@H](O)[C@@H]1OP(=O)(O)O)C(N)=O [CoA-DEEI-NH2, CoA-Ac-DEEI-NH2] ({Pantoyl(4-O-3'-P-ADP)-βAla}-[NHCH2CH2SCH2CO]DEEI-NH2)"
  TEST TARGET: "MBP-hNAA80 (Homo sapiens, UniProt Q93015)"
  UNIT INFO: "nM"
  IC50: 1220
- COMPOUND: "CC(C)C[C@H](NC(=O)[C@H](CC(=O)O)NC(=O)[C@H](CCC(=O)O)NC(=O)[C@H](CCC(=O)O)NC(=O)CSCCNC(=O)CCNC(=O)[C@H](O)C(C)(C)COP(=O)(O)OP(=O)(O)OC[C@H]1O[C@@H](n2cnc3c(N)ncnc32)[C@H](O)[C@@H]1OP(=O)(O)O)C(N)=O [CoA-EEDL-NH2, CoA-Ac-EEDL-NH2] ({Pantoyl(4-O-3'-P-ADP)-βAla}-[NHCH2CH2SCH2CO]EEDL-NH2)"
  TEST TARGET: "MBP-hNAA80 (Homo sapiens, UniProt Q93015)"
  UNIT INFO: "nM"
  IC50: 1760
- COMPOUND: "CC[C@H](C)[C@H](NC(=O)[C@H](CC(=O)O)NC(=O)[C@H](CCC(=O)O)NC(=O)[C@H](CCC(=O)O)NC(=O)CSCCNC(=O)CCNC(=O)[C@H](O)C(C)(C)COP(=O)(O)OP(=O)(O)OC[C@H]1O[C@@H](n2cnc3c(N)ncnc32)[C@H](O)[C@@H]1OP(=O)(O)O)C(N)=O [CoA-EEDI-NH2, CoA-Ac-EEDI-NH2] ({Pantoyl(4-O-3'-P-ADP)-βAla}-[NHCH2CH2SCH2CO]EEDI-NH2)"
  TEST TARGET: "MBP-hNAA80 (Homo sapiens, UniProt Q93015)"
  UNIT INFO: "nM"
  IC50: 170
- COMPOUND: "CC[C@H](C)[C@H](NC(=O)[C@H](CC(=O)O)NC(=O)[C@H](CC(=O)O)NC(=O)[C@H](CCC(=O)O)NC(=O)CSCCNC(=O)CCNC(=O)[C@H](O)C(C)(C)COP(=O)(O)OP(=O)(O)OC[C@H]1O[C@@H](n2cnc3c(N)ncnc32)[C@H](O)[C@@H]1OP(=O)(O)O)C(N)=O [CoA-EDDI-NH2, CoA-Ac-EDDI-NH2] ({Pantoyl(4-O-3'-P-ADP)-βAla}-[NHCH2CH2SCH2CO]EDDI-NH2)"
  TEST TARGET: "MBP-hNAA80 (Homo sapiens, UniProt Q93015)"
  UNIT INFO: "nM"
  IC50: 120
